testedSystem: Gag-Pol polyprotein (Rous sarcoma virus (strain Prague C) (RSV-PrC), UniProt P03354)
Sequence (P03354 1281-1567 limits assumed): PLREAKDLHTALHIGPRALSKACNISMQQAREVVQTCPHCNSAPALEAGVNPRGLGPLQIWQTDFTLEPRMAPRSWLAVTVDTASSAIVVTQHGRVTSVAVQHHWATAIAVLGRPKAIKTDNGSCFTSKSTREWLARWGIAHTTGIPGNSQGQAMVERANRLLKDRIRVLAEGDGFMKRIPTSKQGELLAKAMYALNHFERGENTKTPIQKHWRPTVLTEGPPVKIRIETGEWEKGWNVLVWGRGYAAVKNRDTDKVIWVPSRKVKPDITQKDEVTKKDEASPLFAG
method: Inhibition of rous sarcoma virus (RSV) Integrase.
pIC50: −log10 of the molar value.
pIC50 values, listed per item

Consider the worked cases shown below.
O=C(O)c1ccc2ccc(/C=C/c3ccc(O)cc3)nc2c1O; 4.68
CC(=O)Oc1cccc2ccc(/C=C/c3ccccc3)nc12; < 4.00

Now consider a different compound.
pIC50 measured on O=[N+]([O-])c1cccc2ccc(/C=C/c3ccc(O)c(O)c3)nc12 = < 4.00

###

testedSystem: Gag-Pol polyprotein (Rous sarcoma virus (strain Prague C) (RSV-PrC), UniProt P03354)
method: Inhibition of rous sarcoma virus (RSV) Integrase.
pIC50: −log10 of the molar value.
assayEndpoint: pIC50

O=C(O)c1ccc2ccc(/C=C/c3ccccc3)nc2c1O; 4.99

I = O=C(O)c1cc(/C=C/c2ccc3ccc(C(=O)O)c(O)c3n2)ccc1O
II = O=C(O)c1ccc2ccc(/C=C/c3cc(O)c(O)c(O)c3)nc2c1O
III = Oc1ccc(/C=C/c2ccc3cccc(O)c3n2)cc1O
IV = N#Cc1ccc2ccc(/C=C/c3ccc(O)c(O)c3)nc2c1O
// query Would you mind ranking these compounds by ascending pIC50? Give the order by naming the labels one after another as requested.
// result III, IV, I, II
(III: 4.19, IV: 4.42, I: 5.13, II: 5.68)

###

testedSystem: Human immunodeficiency virus type 1 integrase (Human immunodeficiency virus 1, UniProt Q7ZJM1)
Sequence (Q7ZJM1 whole entry): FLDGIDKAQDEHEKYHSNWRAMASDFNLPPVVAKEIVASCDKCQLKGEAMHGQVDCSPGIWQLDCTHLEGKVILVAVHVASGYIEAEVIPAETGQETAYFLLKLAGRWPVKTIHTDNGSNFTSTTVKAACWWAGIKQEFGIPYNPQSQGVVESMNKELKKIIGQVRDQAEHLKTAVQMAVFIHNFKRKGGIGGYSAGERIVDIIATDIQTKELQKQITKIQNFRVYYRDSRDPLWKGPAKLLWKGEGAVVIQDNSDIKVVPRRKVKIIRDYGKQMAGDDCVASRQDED
assayEndpoint: pIC50
Would you please state pIC50, meaning minus log10 of the concentration in mol/L, as a bare number?

pIC50 measured on O=C(O)c1ccc2ccc(/C=C/c3ccc(O)cc3O)nc2c1O = 5.60

###

IC50 values, listed per item
testedSystem: Gag-Pol polyprotein (Rous sarcoma virus (strain Prague C) (RSV-PrC), UniProt P03354)
method: Inhibition of rous sarcoma virus (RSV) Integrase.

Consider the worked cases shown below.
CC(=O)Oc1ccc(/C=C/c2ccc3cccc(OC(C)=O)c3n2)cc1OC(C)=O; > 100 µM
Nc1cccc2ccc(/C=C/c3ccc(O)c(O)c3)nc12; > 100 µM
O=C(O)c1ccc2ccc(/C=C/c3ccc(O)c(O)c3)nc2c1O; 2.3 µM

IC50 measured on Cc1ccc2cccc(OC(=O)/C=C/c3ccc(O)c(O)c3)c2n1 = > 100 µM

IC50 measured on Oc1cccc2ccc(/C=C/c3ccccc3)nc12 = > 100 µM

IC50 measured on O=C(O)c1ccc2ccc(/C=C/c3ccc(O)cc3O)nc2c1O = 38.3 µM
